Source of measurements: patent US20100292255A1

- Study System: purified human Hsp90
- Construct: purified human Hsp90 (Stressgen, SPP-770)
- Experiment Description: Hsp90 binding assay: displacement of BODIPY-labeled geldanamycin measured by fluorescence polarization
- Test Settings: BODIPY-GM 10 nM, Hsp90 30 nM, overnight at room temperature; read-out: GM displacement from purified Hsp90 measured by FP IC 50
Measurement Type: IC50
A bare number is not enough; add the unit after it.

# example entries with known answers
COCCC(=O)N1CCC(CCn2c(Sc3cc4c(cc3C#N)OCO4)nc3c(N)ncnc32)CC1 [compound 41]; 480 nM
CN1CCOc2cc(Sc3nc4c(N)ncnc4n3CCC3CCN(C=O)CC3)c(Cl)cc21 [Example Compound 185]; 400 nM
COC(=O)c1cc2c(cc1Sc1nc3c(N)ncnc3n1CCC1CCNCC1)OCO2 [Example Compound 174]; 150 nM

Lookup: IC50 lookup needed for CS(=O)(=O)N1CCCCC1CCn1c(Sc2cc3c(cc2C#N)OCO3)nc2c(N)ncnc21 (stereo not shown) [compound 46] , thanks.
Found: 700 nM
